Give DC50 for every item shown.
Target: Helios (Homo sapiens, UniProt Q96SW2+Q9UKS7)
Construct: endogenous in cells; host or cells: Jurkat cells
Sequence (Q9UKS7 whole entry): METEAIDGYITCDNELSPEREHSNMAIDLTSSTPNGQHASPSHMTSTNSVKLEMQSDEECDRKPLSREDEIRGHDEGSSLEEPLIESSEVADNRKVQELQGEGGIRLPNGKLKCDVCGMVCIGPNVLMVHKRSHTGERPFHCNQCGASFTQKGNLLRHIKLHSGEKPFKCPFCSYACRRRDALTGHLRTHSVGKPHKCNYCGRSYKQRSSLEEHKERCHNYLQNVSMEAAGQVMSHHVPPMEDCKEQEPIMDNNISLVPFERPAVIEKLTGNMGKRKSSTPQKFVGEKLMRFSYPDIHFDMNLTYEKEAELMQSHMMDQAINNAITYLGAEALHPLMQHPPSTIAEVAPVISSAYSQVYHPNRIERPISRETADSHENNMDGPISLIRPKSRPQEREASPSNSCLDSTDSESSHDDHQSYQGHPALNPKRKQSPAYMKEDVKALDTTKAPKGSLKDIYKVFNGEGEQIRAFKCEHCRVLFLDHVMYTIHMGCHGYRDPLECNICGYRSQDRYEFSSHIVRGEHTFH
Sequence (Q96SW2 whole entry): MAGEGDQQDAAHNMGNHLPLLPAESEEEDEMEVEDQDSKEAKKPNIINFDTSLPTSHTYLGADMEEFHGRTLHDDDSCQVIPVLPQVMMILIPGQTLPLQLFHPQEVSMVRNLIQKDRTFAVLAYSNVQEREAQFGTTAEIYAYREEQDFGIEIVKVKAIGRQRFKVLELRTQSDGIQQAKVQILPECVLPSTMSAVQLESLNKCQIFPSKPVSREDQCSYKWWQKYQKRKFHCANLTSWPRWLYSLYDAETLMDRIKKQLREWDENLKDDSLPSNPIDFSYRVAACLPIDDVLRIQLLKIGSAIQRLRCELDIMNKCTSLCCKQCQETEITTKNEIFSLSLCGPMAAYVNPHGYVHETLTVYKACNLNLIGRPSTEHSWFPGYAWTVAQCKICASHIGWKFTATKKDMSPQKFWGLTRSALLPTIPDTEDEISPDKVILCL
Sequence (Q16531 whole entry partner): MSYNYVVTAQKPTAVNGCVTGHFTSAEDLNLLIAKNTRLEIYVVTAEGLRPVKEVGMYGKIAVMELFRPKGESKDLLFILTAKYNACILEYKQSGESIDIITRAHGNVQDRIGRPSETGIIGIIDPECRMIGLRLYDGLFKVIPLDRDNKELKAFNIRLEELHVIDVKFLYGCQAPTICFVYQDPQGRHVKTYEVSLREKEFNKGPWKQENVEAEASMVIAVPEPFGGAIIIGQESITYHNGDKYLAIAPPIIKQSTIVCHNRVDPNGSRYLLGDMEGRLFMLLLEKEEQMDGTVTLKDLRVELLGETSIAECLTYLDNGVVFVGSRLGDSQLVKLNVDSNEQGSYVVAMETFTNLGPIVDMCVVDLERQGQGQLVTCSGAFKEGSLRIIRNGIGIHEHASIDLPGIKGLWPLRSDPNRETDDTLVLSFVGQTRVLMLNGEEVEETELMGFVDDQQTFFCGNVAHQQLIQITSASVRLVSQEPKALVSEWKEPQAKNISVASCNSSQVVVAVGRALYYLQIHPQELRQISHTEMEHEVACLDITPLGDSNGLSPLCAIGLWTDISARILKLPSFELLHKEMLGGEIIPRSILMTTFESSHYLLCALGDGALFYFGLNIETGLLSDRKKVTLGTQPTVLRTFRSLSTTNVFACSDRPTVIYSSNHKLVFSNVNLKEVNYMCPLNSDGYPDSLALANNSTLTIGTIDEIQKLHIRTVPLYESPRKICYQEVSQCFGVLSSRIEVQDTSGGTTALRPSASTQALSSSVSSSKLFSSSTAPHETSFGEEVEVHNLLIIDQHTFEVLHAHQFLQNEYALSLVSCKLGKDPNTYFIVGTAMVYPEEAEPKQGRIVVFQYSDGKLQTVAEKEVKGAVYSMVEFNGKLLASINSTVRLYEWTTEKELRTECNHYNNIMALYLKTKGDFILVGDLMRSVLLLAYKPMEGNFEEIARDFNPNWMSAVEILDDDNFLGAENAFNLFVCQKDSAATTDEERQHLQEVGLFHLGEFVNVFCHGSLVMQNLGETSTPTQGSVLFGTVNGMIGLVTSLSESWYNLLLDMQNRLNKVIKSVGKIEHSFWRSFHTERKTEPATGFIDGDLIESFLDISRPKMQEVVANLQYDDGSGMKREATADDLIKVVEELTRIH
Assay: Helios Cellular Degradation Assay (Helios, Jurkat)
Type: cell-based
Conditions: Jurkat cells, 72 h incubation, flow cytometry with Helios-PE antibody; read-out: Helios Jurkat IC50
Method: Jurkat cells were plated at 80,000 cells/well in 40 μL RPMI+10% FBS in a 384 well cell culture plate prior to using acoustic dispensing technology for adding compound of interest. Cell cultures were incubated for 72 h at 37° C. and 5% CO2. […] Stained cells were resuspended in 25 μL of flow cytometry staining buffer (PBS+0.2% BSA) and analyzed using an Intellicyt Ique Plus flow cytometer.
Numbers only, in nM.

compound	test-readout	reported-result
Cc1cc(-c2ccc3c(c2)[C@H](C)N(C2CCC(=O)NC2=O)C3=O)nc(N)c1C#N (single isomer, unassigned)	DC50	310
Cc1cc(-c2ccc3c(c2C)CN(C2CCC(=O)NC2=O)C3=O)nc(N)c1C#N (stereo not drawn)	DC50	1400

Now for another entry.
Query string: Input Cc1cc(-c2ccc3c(c2F)[C@H](C)N(C2CCC(=O)NC2=O)C3=O)nc(N)c1F (stereo partly drawn) , output reported DC50.
Result string: 700
